SYSTEM: human FPRL1 (Homo sapiens)
Construct: Full length cDNA encoding FPRL1 was cloned, using the polymerase chain reaction (PCR), from genomic DNA isolated from undifferentiated HL-60 cells; expressed in transfected cells; linearized FPRL1/pcDNA3.1, electroporation
Sequence (P25090 whole entry): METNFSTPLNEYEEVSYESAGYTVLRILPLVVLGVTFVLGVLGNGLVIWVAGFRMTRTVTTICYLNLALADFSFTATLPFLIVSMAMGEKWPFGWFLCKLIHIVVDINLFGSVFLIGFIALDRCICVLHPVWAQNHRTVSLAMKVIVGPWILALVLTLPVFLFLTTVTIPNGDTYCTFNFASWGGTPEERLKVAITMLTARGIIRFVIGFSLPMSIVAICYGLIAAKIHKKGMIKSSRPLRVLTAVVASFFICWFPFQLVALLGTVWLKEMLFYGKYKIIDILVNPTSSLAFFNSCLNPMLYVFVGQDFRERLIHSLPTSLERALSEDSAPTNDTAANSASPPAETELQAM
ASSAY NOTES: Calcium flux in FPRL1-L1.2 transfectants
Format: cell-based
SETUP CONDITIONS: qualitative rating, Table 6
Ends that are not written are not given here.
PARAMETER MEASURED: Notes: activity

[[record]]
monomer_sequence = "MLWRRKIGPQMTLSHAAG [SEQ ID NO: 1]"
system = "human FPRL1 (Homo sapiens)"
observed_measurement = "high"

[[record]]
monomer_sequence = "MLWRRKIGPQMT [SEQ ID NO: 5]"
system = "human FPRL1 (Homo sapiens)"
observed_measurement = "Moderate"

[[record]]
monomer_sequence = "LWRRKIGPQMTLSH [SEQ ID NO: 11]"
system = "human FPRL1 (Homo sapiens)"
observed_measurement = "Moderate"

[[record]]
monomer_sequence = "MLWRRKIGPQMTLSHAAY [SEQ ID NO: 6]"
system = "human FPRL1 (Homo sapiens)"
observed_measurement = "high"


With human FPRL1 (Homo sapiens) as the test system, MLWRRKIGPQMTLSH [SEQ ID NO: 3] showed Notes: activity of High

With human FPRL1 (Homo sapiens) as the test system, MLWRRKIGPQM [SEQ ID NO: 8] showed Notes: activity of Moderate
